Data origin, for the record: paper PMC8599947

molecular target: CST g3.1 (human, UniProt Q2NKJ3;Q9H668;Q86WV5 1-1217;1-368;1-123, K1167E;CTC1:K1164E); assay: fluorescence anisotropy
Sequence (Q2NKJ3 whole entry K1167E, chain 1 of 3): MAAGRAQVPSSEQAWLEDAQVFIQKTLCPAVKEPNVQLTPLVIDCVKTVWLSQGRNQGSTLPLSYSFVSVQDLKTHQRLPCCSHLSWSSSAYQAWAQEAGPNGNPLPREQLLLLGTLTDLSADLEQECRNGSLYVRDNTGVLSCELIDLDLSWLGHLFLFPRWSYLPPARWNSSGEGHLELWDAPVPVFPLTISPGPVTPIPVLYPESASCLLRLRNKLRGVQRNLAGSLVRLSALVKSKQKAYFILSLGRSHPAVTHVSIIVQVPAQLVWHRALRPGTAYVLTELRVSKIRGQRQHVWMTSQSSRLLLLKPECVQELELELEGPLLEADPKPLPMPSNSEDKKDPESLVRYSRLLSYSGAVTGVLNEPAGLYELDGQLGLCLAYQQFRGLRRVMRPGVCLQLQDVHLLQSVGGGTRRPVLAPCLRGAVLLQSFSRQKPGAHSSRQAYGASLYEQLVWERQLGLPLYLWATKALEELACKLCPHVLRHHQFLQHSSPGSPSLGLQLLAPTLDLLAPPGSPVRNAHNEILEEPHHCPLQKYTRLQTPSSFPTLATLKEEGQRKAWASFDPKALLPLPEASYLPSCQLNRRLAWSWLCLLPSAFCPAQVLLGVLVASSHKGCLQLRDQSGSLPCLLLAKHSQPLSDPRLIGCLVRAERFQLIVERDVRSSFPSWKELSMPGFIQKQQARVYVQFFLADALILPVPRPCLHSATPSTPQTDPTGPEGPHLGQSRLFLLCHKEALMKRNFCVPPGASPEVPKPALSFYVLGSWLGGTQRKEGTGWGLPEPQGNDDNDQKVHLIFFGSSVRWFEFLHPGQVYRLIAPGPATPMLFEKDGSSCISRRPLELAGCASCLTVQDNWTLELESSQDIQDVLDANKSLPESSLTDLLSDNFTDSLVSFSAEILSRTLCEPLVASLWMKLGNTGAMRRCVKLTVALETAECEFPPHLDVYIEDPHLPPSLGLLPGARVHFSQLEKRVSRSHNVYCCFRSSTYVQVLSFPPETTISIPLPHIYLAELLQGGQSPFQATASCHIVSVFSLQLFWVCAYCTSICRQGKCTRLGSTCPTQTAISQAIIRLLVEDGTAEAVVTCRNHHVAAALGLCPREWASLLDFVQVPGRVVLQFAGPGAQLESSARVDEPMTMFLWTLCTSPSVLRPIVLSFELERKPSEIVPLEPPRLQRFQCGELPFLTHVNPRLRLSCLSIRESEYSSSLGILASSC
Sequence (Q9H668 whole entry, stated change not applied, chain 2 of 3): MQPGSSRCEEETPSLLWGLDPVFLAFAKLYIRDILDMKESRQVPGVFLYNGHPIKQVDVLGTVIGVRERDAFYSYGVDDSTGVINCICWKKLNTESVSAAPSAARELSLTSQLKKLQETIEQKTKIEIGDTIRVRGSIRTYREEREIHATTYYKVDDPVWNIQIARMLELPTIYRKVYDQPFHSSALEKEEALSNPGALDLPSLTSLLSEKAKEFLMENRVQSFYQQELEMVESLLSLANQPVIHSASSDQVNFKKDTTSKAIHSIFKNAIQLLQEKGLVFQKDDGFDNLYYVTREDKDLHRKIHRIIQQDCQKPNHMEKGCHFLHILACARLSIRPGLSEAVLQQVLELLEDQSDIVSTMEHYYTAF
Sequence (Q86WV5 whole entry, stated change not applied, chain 3 of 3): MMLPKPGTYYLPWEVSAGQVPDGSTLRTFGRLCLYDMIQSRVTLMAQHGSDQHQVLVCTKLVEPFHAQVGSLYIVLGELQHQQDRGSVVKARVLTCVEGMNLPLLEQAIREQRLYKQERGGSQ
pKd: −log10 of the molar value.
Quantity measured: pKd

Return reported pKd; argument: TTAGGGTTAGGGTTAGGG (ssDNA) [3xTEL (FP)]
~6.38
